target: trypsin; assay: Trypsin inhibition, chromogenic substrate (serine protease inhibitory testing); format: biochemical; conditions: recombinant LL-TIL; trypsin 10 nM; 0.05 M Tris-HCl pH 7.8, 37 °C; pre-incubated 10 min; chromogenic substrate B-3133, p-nitroaniline at 405 for 2 min; Dixon plot, [S] 0.2 and 0.4 mM
No end group written: not given here.
Measurement Kind: Ki (µM)

Monomer Sequence: IRCPKDKIYKFCGSPCPPSCKDLTPNCIAVCKKGCFCRDGTVDNNHGKCVKKENC (disulfide (positions not given here)) [LL-TIL]
Measurement Kind: Ki
Reported: 16.5
